Test system: HCV replicon I389luc-ubi-neo/NS3-3′/ET in ET (Huh-lucubineo-ET) cell line
protocol_notes: Replicon assay (luciferase reporter)
Type: cell-based
condition_info: Hepatitis C virus; tested at 33 μM; ET (Huh-lucubineo-ET) replicon cells, luciferase activity, relative to no compound control; read-out: % inhibition of replication
Record form. Attribute: inhibition at 33 µM. Fill in for each entry.
Give bare numbers, in %.

Give measured inhibition at 33 µM for every item shown.
1. Cc1nc(C)c(-c2ccc3cc(-c4c(C5CCCCC5)cc(C(=O)O)n4CC(=O)OC(C)(C)C)ccc3n2)s1 [Compound 31]
2. Cc1nc(C)c(-c2ccc3cc(-c4c(C5CCCCC5)cc(C(=O)NCC(=O)O)n4CC(=O)N4CCOCC4)ccc3n2)s1 [Compound 33]
3. Cc1nc(C)c(-c2ccc3cc(-c4c(C5CCCCC5)cc(C(=O)O)n4CC(=O)O)ccc3n2)s1 [Compound 30]
4. Cc1nc(C)c(-c2ccc3cc(-c4c(C5CCCCC5)cc(C(=O)O)n4CC(=O)N4CCOCC4)ccc3n2)s1 [Compound 32]

48
17
22
57
